This document collects pKd values reported for bacterial neuraminidase (BNA) (Clostridium perfringens, UniProt P10481).
Scale note: pKd = -log10(concentration in M).

[[record]]
compound = "C=C1CCCC(C)(C)C1Cc1c(O)cc2c(c1O)C(=O)CC(c1ccc(O)c(O)c1)O2 (centres unmarked)"
observedresult = 6.13

[[record]]
compound = "CC1=CCCC(C)(C)C1Cc1c(O)c(O)cc2oc3c(=O)c4c(O)cc(O)cc4oc3c12 (centres unmarked)"
observedresult = 5.93

[[record]]
compound = "CC1(C)CCCC2(C)Oc3cc4oc(-c5ccc(O)c(O)c5)cc(=O)c4c(O)c3CC12 (centres unmarked)"
observedresult = 4.48

[[record]]
compound = "C=C1CCCC(C)(C)[C@@H]1Cc1c(O)cc2oc(-c3ccc(O)c(O)c3)cc(=O)c2c1O"
observedresult = 6.55


The compound `CC1(C)CCC[C@@]2(C)Oc3c(c(O)cc4oc(-c5ccc(O)c(O)c5)cc(=O)c34)C[C@@H]12` , tested on bacterial neuraminidase (BNA) (Clostridium perfringens, UniProt P10481), showed pKd of 4.78

---

- measuredTarget: bacterial neuraminidase (BNA) (Clostridium perfringens)
- assay: biochemical
- Format: biochemical, C. perfrigens
- studyConditions: pH 5.0; read-out: IC50, inhibition of bacterial neuraminidase (BNA)
IC50 vs 0.3 µM: less than gives TRUE; not less than gives FALSE.

Example cases with answers are listed next.
[[record]]
molecule = "CC1(C)CCCC2(C)Oc3cc4oc(-c5ccc(O)c(O)c5)cc(=O)c4c(O)c3CC12 (stereo not shown) [Compound 6, ugonin U]"
label = "FALSE"

[[record]]
molecule = "CC1(C)CCC[C@@]2(C)Oc3c(c(O)cc4oc(-c5ccc(O)c(O)c5)cc(=O)c34)C[C@@H]12 [Compound 5, ugonin S]"
label = "TRUE"

[[record]]
molecule = "O=C1C[C@@H](c2ccc(O)c(O)c2)Oc2cc(O)cc(O)c21 [Eriodictyol, reference compound]"
label = "FALSE"

[[record]]
molecule = "CC1=CCCC(C)(C)C1Cc1c(O)c(O)cc2oc3c(=O)c4c(O)cc(O)cc4oc3c12 (stereo not shown) [Compound 4, ugonin M]"
label = "TRUE"

[[record]]
molecule = "C=C1CCCC(C)(C)C1Cc1c(O)cc2c(c1O)C(=O)CC(c1ccc(O)c(O)c1)O2 (stereo not shown) [Compound 2]"
label = "TRUE"

[[record]]
molecule = "C=C1CCCC(C)(C)[C@@H]1Cc1c(O)cc2oc(-c3ccc(O)c(O)c3)cc(=O)c2c1O [Compound 1, ugonin J]"
label = "TRUE"


Let us examine a further case.
**Query** API: query returns whether the molecule falls strictly under 0.3 µM in IC50. Query: O=c1cc(-c2ccc(O)c(O)c2)oc2cc(O)cc(O)c12 [Luteolin, reference compound]
**Result** FALSE

---

- System: E. coli biofilm
- assay: Antibiofilm assay (crystal violet staining)
- Type: cell-based
- studyConditions: Escherichia coli, 24 h, 37°C, read-out: concentration giving 50% inhibition of E. coli biofilm production
assayReadout: pIC50
Give only the number. pIC50 is defined as minus log10 of concentration in molar units.

// sample `C=C1CCCC(C)(C)[C@@H]1Cc1c(O)cc2oc(-c3ccc(O)c(O)c3)cc(=O)c2c1O` , its pIC50 was 4.74

---

- measuredTarget: bacterial neuraminidase (BNA) (Clostridium perfringens, UniProt P10481)
- Sequence (P10481 whole entry, looked up): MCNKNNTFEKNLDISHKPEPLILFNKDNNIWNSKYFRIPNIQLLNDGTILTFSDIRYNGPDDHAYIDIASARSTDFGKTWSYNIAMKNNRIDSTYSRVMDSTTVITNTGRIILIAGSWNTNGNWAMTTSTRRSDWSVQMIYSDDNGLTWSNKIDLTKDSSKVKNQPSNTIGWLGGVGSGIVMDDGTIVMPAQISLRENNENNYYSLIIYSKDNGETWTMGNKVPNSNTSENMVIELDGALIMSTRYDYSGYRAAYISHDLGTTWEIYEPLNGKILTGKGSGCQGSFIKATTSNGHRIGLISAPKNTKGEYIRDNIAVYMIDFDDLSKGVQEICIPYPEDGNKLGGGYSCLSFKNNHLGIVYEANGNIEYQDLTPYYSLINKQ
- assay: biochemical
- Assay type: biochemical, C. perfrigens
- studyConditions: IC50, inhibition of bacterial neuraminidase (BNA)
Collected IC50 values appear next to each entry.
I only need the number, in µM, no unit after it.

[[record]]
compound = "O=c1c(O)c(-c2ccc(O)c(O)c2)oc2cc(O)cc(O)c12 [Quercetin, reference compound]"
measuredtarget = "bacterial neuraminidase (BNA) (Clostridium perfringens, UniProt P10481)"
outputunit = "µM"
observedresult = 20.4


Pending compound:
Reported IC50 for `CC1(C)CCC[C@@]2(C)Oc3c(c(O)cc4oc(-c5ccc(O)c(O)c5)cc(=O)c34)C[C@@H]12` was 0.14

---

- measuredTarget: bacterial neuraminidase (BNA) (Clostridium perfringens, UniProt P10481)
- assay: biochemical
- Format: binding, C. perfrigens
molecules and their reported K SV (Stern-Volmer quenching constant)
Give the value, in units of L/mol, as a plain number.

Answered examples (4):
[[record]]
molecule = "CC1(C)CCCC2(C)Oc3cc4oc(-c5ccc(O)c(O)c5)cc(=O)c4c(O)c3CC12 (centres unmarked) [Compound 6, ugonin U]"
observedresult = 50000

[[record]]
molecule = "C=C1CCCC(C)(C)C1Cc1c(O)cc2c(c1O)C(=O)CC(c1ccc(O)c(O)c1)O2 (centres unmarked) [Compound 2]"
observedresult = "2.53e+06"

[[record]]
molecule = "CC1(C)CCC[C@@]2(C)Oc3c(c(O)cc4oc(-c5ccc(O)c(O)c5)cc(=O)c34)C[C@@H]12 [Compound 5, ugonin S]"
observedresult = 70000

[[record]]
molecule = "CC1=CCCC(C)(C)C1Cc1c(O)c(O)cc2oc3c(=O)c4c(O)cc(O)cc4oc3c12 (centres unmarked) [Compound 4, ugonin M]"
observedresult = 810000


Recorded result, C=C1CCCC(C)(C)[C@@H]1Cc1c(O)cc2oc(-c3ccc(O)c(O)c3)cc(=O)c2c1O [Compound 1, ugonin J] , K SV (Stern-Volmer quenching constant): 4.77e+06

---

- measuredTarget: bacterial neuraminidase (BNA) (Clostridium perfringens, UniProt P10481)
- assay: biochemical
- Format: binding, C. perfrigens
assayReadout: n (number of binding sites)
Answer with a bare number; do not write a unit.

Consider the reported n (number of binding sites) for these compounds:
[[record]]
compound = "CC1=CCCC(C)(C)C1Cc1c(O)c(O)cc2oc3c(=O)c4c(O)cc(O)cc4oc3c12 (centres unmarked)"
observedresult = 1.13

[[record]]
compound = "CC1(C)CCC[C@@]2(C)Oc3c(c(O)cc4oc(-c5ccc(O)c(O)c5)cc(=O)c34)C[C@@H]12"
observedresult = 1.24

[[record]]
compound = "C=C1CCCC(C)(C)C1Cc1c(O)cc2c(c1O)C(=O)CC(c1ccc(O)c(O)c1)O2 (centres unmarked)"
observedresult = 1.01

[[record]]
compound = "CC1(C)CCCC2(C)Oc3cc4oc(-c5ccc(O)c(O)c5)cc(=O)c4c(O)c3CC12 (centres unmarked)"
observedresult = 1.44


Query compound follows.
Summary line: `C=C1CCCC(C)(C)[C@@H]1Cc1c(O)cc2oc(-c3ccc(O)c(O)c3)cc(=O)c2c1O` , bacterial neuraminidase (BNA) (Clostridium perfringens, UniProt P10481), reported n (number of binding sites) = 1.30

---

The compounds below have reported pKi for bacterial neuraminidase (BNA) (Clostridium perfringens).
Keep it numeric: pKi is minus log10 of the concentration in mol/L.

Below: 3 compounds and their reported pKi.
[[record]]
compound = "CC1=CCCC(C)(C)C1Cc1c(O)c(O)cc2oc3c(=O)c4c(O)cc(O)cc4oc3c12 (stereo not shown)"
measuredtarget = "bacterial neuraminidase (BNA) (Clostridium perfringens)"
observedresult = 6.92

[[record]]
compound = "CC1(C)CCC[C@@]2(C)Oc3c(c(O)cc4oc(-c5ccc(O)c(O)c5)cc(=O)c34)C[C@@H]12"
measuredtarget = "bacterial neuraminidase (BNA) (Clostridium perfringens)"
observedresult = 6.60

[[record]]
compound = "C=C1CCCC(C)(C)C1Cc1c(O)cc2c(c1O)C(=O)CC(c1ccc(O)c(O)c1)O2 (stereo not shown)"
measuredtarget = "bacterial neuraminidase (BNA) (Clostridium perfringens)"
observedresult = 7.22


Okay, now this compound:
GET /values?item= CC1(C)CCCC2(C)Oc3cc4oc(-c5ccc(O)c(O)c5)cc(=O)c4c(O)c3CC12 (stereo not shown) &system= bacterial neuraminidase (BNA) (Clostridium perfringens) returns pKi: 6.54
